species on record: Homo sapiens; assay: Selectivity for human recombinant adrenergic Alpha-2C receptor over human recombinant adrenergic alpha2B receptor by radioligand binding assay
MEASURED_ATTRIBUTE: Ratio Ki

Answered cases to consult:
INSERT INTO assay_data (compound, value) VALUES
  ('O=C(NCCN1CCCN(CC2COc3ccccc3O2)CC1)c1cccnc1 (stereo not drawn)', 1),
  ('O=C(NCCN1CCCN(CC2COc3ccccc3O2)CC1)c1cccnc1Oc1ccccc1 (stereo not drawn)', 10),
  ('N#Cc1cccc(Oc2ncccc2C(=O)NCCN2CCCN(CC3COc4ccccc4O3)CC2)c1 (stereo not drawn)', 48),
  ('CC(C)(C)Nc1ncccc1C(=O)NCCN1CCCN(CC2COc3ccccc3O2)CC1 (stereo not drawn)', 58),
  ('O=C(NCCN1CCCN(C[C@H]2COc3ccccc3O2)CC1)c1cccnc1Oc1ccccc1', 16),
  ('O=C(NCCN1CCCN(C[C@@H]2COc3ccccc3O2)CC1)c1cccnc1Oc1ccccc1', 12),
  ('COc1ccccc1N1CCN(CC2COc3ccccc3O2)CC1 (stereo not drawn)', 6),
  ('c1ccc(Oc2ncccc2COCCN2CCCN(CC3COc4ccccc4O3)CC2)cc1 (stereo not drawn)', 28),
  ('CCCCOc1cccc(C(=O)NCCN2CCCN(CC3COc4ccccc4O3)CC2)n1 (stereo not drawn)', 18),
  ('c1ccc(CN2CCN(CC3CCc4ccccc4O3)CC2)cc1 (stereo not drawn)', 4);

I = c1ccc(Oc2ncccc2-c2noc(CN3CCCN(CC4COc5ccccc5O4)CC3)n2)cc1 (stereo not drawn)
II = O=C(NCCN1CCN(CC2COc3ccccc3O2)CC1)c1cccnc1Oc1ccccc1 (stereo not drawn)
Q) Choose between I and II : whose measured Ratio Ki value is numerically larger? // return label of chosen record
A) I

Hello, the source for this data is ChEMBL document CHEMBL1144238, in case you need it.
